Data provenance: patent US11291205B2

test system: Mycosphaerella graminicola (Septoria tritici); assay: Mycosphaerella graminicola (Septoria tritici) / liquid culture (Septoria blotch); assay type: cell-based; conditions: Zymoseptoria tritici, 96 h, 200 ppm in the formulation, inhibition of growth determined photometrically 4 to 5 days after application, compared to untreated control, read-out: disease control
Please respond with reported inhibition of growth at 200 ppm for every item in the list.

Here's what some known entries look like.
* COc1ccnc(C(=O)N[C@@H](C)C(=O)OC2CCC2(c2ccc(C)cc2)c2ccc(C)cc2)c1O (some centres unmarked) | ≥ 80%
* CCCc1ccc(C2CC2OC(=O)[C@H](C)NC(=O)c2nccc(OC)c2O)cc1 (some centres unmarked) | ≥ 80%
* COc1ccnc(C(=O)N[C@@H](C)C(=O)OC2CCC2(c2ccc(F)cc2)c2ccc(F)cc2)c1OC(C)=O (some centres unmarked) | ≥ 80%
* COc1ccnc(C(=O)N[C@@H](C)C(=O)OC2CCC2(CC(C)C)c2ccc(F)cc2)c1O (some centres unmarked) | ≥ 80%
* COc1ccnc(C(=O)N[C@@H](C)C(=O)OC2CCC2(c2ccc(F)cc2)C2CC2)c1O (some centres unmarked) | ≥ 80%
* COc1ccnc(C(=O)N[C@@H](C)C(=O)OC2CCC2c2ccc(Cl)cc2)c1O (some centres unmarked) | ≥ 80%
* COc1cccc(C2(c3cccc(OC)c3)CCC2OC(=O)[C@H](C)NC(=O)c2nccc(OC)c2O)c1 (some centres unmarked) | ≥ 80%

For this molecule ( COc1ccnc(C(=O)N[C@@H](C)C(=O)OC2CCC2c2ccc(F)cc2)c1O (some centres unmarked) ), measured inhibition of growth at 200 ppm is ≥ 80%
